Each recorded value in this set is attributed to ChEMBL document CHEMBL1961873.

Target entity: Rho-associated protein kinase 2 (Homo sapiens) (UniProt O75116)
Sequence (O75116 whole entry, looked up): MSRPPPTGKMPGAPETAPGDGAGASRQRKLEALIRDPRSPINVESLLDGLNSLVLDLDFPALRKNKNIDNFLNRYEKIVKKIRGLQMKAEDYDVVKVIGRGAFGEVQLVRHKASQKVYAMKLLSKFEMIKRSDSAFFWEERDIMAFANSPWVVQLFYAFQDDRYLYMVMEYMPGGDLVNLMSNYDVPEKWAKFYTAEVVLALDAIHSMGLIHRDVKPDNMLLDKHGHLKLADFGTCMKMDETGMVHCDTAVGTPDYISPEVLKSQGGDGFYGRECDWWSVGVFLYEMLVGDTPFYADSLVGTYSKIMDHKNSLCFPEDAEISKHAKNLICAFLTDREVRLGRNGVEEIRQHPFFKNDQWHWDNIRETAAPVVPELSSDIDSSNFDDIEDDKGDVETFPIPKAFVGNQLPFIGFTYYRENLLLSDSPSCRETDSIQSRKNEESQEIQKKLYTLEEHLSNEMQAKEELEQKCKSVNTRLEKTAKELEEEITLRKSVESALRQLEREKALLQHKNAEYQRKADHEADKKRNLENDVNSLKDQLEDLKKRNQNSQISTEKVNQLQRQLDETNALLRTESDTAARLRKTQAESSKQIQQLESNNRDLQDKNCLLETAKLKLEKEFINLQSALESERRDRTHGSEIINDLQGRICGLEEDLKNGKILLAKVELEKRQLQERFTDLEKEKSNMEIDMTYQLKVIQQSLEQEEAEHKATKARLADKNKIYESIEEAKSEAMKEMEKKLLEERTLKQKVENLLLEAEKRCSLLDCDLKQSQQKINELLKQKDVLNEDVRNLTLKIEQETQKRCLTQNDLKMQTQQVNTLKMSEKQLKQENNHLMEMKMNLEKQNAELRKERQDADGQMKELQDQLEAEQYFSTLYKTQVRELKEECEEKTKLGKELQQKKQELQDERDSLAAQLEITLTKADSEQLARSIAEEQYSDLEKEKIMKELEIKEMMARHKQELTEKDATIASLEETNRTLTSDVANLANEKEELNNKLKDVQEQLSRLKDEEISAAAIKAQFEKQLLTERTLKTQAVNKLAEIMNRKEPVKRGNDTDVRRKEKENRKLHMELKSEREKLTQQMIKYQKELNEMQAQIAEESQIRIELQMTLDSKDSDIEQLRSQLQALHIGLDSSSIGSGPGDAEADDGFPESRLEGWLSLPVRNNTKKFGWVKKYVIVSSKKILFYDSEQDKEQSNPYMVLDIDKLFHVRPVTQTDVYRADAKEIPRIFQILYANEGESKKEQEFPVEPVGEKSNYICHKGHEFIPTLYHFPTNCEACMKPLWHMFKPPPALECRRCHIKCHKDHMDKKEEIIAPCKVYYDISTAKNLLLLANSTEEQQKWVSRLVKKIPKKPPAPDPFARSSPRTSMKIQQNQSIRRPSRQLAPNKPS
Recorded conditions: at 1 µM
Description: GSK_PKIS: ROCK2 mean inhibition at 1 uM [Nanosyn]
Measured parameter: inhibition (%)
All answers are understood in %, so give the number only.

Use these answered entries as a reference point.
| Smiles string | Measured parameter | Value |
| --- | --- | --- |
| CNC(=O)c1cncc(/C=C/c2c(C)cccc2C)c1 | inhibition | 1.34 |
| COc1cc(Nc2ncc3c(C)nc(-c4cccc(C(F)(F)F)c4)n3n2)cc(OC)c1OC | inhibition | 8.14 |

Need inhibition, item COc1cc2ncn(-c3cc(OCCc4ccccc4)c(C(N)=O)s3)c2cc1OC -1.5

Need inhibition, item C[C@@H](Oc1cc(-n2cnc3ccc(OCC4CCN(C)CC4)cc32)sc1C(N)=O)c1ccccc1Cl 9.54

====

Reported inhibition values for a set of compounds
System: Mast/stem cell growth factor receptor Kit (Homo sapiens), P10721 [D816V]
Sequence (P10721 whole entry D816V): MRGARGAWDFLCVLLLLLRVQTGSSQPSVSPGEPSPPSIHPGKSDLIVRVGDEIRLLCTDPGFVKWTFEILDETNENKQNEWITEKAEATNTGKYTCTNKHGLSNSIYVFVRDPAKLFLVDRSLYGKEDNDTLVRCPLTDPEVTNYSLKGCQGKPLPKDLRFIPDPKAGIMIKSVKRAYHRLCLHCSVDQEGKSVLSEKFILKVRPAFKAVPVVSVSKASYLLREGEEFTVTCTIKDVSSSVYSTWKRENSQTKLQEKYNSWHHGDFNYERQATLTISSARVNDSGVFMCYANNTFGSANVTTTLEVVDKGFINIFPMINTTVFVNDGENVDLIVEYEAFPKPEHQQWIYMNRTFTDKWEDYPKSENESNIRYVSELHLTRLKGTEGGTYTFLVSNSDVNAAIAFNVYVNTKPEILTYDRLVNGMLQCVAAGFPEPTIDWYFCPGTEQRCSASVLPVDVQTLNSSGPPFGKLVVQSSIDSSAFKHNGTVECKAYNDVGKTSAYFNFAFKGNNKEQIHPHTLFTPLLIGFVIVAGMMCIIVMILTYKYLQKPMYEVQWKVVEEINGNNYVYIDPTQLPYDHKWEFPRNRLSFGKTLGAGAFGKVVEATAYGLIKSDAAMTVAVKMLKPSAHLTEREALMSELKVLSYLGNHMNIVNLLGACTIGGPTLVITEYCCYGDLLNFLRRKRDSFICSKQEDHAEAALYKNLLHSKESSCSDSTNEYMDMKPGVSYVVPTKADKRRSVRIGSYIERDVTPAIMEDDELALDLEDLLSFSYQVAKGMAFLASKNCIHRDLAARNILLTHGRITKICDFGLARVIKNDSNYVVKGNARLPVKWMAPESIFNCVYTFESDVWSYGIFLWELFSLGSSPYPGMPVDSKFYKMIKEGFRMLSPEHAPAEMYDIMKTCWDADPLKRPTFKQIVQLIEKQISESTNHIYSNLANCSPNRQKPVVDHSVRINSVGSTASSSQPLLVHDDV
Recorded conditions: at 0.1 µM
All answers are understood in %, so give the number only.

Use these answered entries as a reference point.
| Compound | inhibition / % |
| --- | --- |
| CCc1cccc(CC)c1/C=C/c1cncc(C(=O)NC)c1 | 2.9 |
| Cc1ccc(NC(=O)c2ccoc2)cc1-c1ccc(C(=O)NCC2CC2)cc1 | 3.87 |
| CCc1nccc2c1nc(-c1nonc1N)n2CC | 0.61 |
| CN1CCN(CCCNc2nc3ccc(Oc4ccc(NC(=O)Nc5cc(C(F)(F)F)ccc5F)cc4)cc3[nH]2)CC1 | -2.19 |
| CCN(CC)Cc1ccc(Nc2nccc(-c3cnn4ncccc34)n2)cc1 | 1.8 |

Need inhibition, item C#Cc1cccc(Nc2ncnc3ccc(OCCCCNCCS(C)(=O)=O)cc23)c1 5.01

Need inhibition, item COc1ccc2cc(-c3c(-c4ccncc4)nc(-c4ccc([S+](C)[O-])cc4C)n3C)ccc2c1 (stereo not given) -3.23

Need inhibition, item Fc1ccc(-c2ncn(C3CCNCC3)c2-c2ccnc(Oc3ccc(Oc4ccccc4)cc3)n2)cc1 2.38

Need inhibition, item COc1ccc2cc(-c3c(-c4ccncc4)nc(-c4ccc(S(C)(=O)=O)cc4C)n3C)ccc2c1 1.65

Need inhibition, item NC(=O)c1cc(-c2ccc(F)cc2)cc(-c2ccncc2)c1N 2.24

Need inhibition, item CCS(=O)(=O)c1ccc(OC)c(Nc2ncc(-c3cccc(-c4ccccc4F)c3)o2)c1 -0.16

Need inhibition, item CN(C)c1ccc2c(c1)/C(=C/Nc1ccc(S(N)(=O)=O)cc1)C(=O)N2 1.55

Need inhibition, item COc1cc2ncn(-c3cc(OCc4ccccc4C(F)(F)F)c(C(C)=O)s3)c2cc1OC 2.21

Need inhibition, item c1ccc(Oc2ccc(Nc3ncc(-c4ccccc4)o3)cc2)cc1 -0.64

Need inhibition, item NC(=O)c1ccc(Oc2nccc(-c3c(-c4ccc(F)cc4)ncn3C3CCNCC3)n2)cc1 4.42

====

Target entity: Insulin-like growth factor 1 receptor (Homo sapiens);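 note: values are mean percent inhibition of IGF1R kinase activity, from the GSK published kinase inhibitor set (PKIS) screening panel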
Recorded conditions: at 0.1 µM
Reported inhibition values for a set of compounds
All answers are understood in %, so give the number only.

Use these answered entries as a reference point.
| Smiles string | inhibition, % |
| --- | --- |
| N#Cc1ccc(Oc2nccc(-c3c(-c4ccc(F)cc4)ncn3C3CCNCC3)n2)cc1 | -0.43 |
| NC(=O)c1ccc(Oc2nccc(-c3c(-c4ccc(F)cc4)ncn3C3CCNCC3)n2)cc1 | 5.51 |
| COc1ccc(C2=C(N3CCc4ccccc43)C(=O)NC2=O)cc1 | 4.43 |
| Fc1ccc(-c2ncn(C3CCNCC3)c2-c2ccnc(Oc3ccc(Oc4ccccc4)cc3)n2)cc1 | 5.31 |
| COc1cc(Nc2ncc(-c3ccccc3)o2)cc(OC)c1OC | 1.91 |

Need inhibition, item COc1cc(Nc2ncc3c(C)nc(-c4cccc(Oc5ccccc5)c4)n3n2)cc(OC)c1OC 3.82

Need inhibition, item CN(C)CCOc1ccc(-c2cc(-c3ccc4c(c3)CCC4=NO)c(-c3ccncc3)o2)cc1 -3.2

Need inhibition, item CCC(=O)Nc1ccc(C)c(-c2ccc(C(=O)NCC3CC3)cc2)c1 3.84

Need inhibition, item CNC(=O)c1cncc(/C=C/c2c(C)cccc2C)c1 -3.76

Need inhibition, item O=C(Nc1ccc(Oc2ccc3[nH]c(NC(=O)c4ccccc4)nc3c2)cc1)Nc1cc(C(F)(F)F)ccc1F 10.6

Need inhibition, item CCS(=O)(=O)c1ccc(OC)c(Nc2ncc(-c3cccc(-c4ccccc4F)c3)o2)c1 2.3

Need inhibition, item NC(=O)Cc1ccccc1Oc1nccc(-c2c(-c3ccc(F)cc3)ncn2C2CCNCC2)n1 3.37

Need inhibition, item COc1cc(C)c(N(C)C(=O)CN(C)C)cc1Nc1nc(Nc2cccc(F)c2C(N)=O)c2cc[nH]c2n1 31.2

====

Target entity: SRSF protein kinase 1 (Homo sapiens) (UniProt Q96SB4);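 note: reported values are mean percent inhibition of SRPK1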
Sequence (Q96SB4 whole entry): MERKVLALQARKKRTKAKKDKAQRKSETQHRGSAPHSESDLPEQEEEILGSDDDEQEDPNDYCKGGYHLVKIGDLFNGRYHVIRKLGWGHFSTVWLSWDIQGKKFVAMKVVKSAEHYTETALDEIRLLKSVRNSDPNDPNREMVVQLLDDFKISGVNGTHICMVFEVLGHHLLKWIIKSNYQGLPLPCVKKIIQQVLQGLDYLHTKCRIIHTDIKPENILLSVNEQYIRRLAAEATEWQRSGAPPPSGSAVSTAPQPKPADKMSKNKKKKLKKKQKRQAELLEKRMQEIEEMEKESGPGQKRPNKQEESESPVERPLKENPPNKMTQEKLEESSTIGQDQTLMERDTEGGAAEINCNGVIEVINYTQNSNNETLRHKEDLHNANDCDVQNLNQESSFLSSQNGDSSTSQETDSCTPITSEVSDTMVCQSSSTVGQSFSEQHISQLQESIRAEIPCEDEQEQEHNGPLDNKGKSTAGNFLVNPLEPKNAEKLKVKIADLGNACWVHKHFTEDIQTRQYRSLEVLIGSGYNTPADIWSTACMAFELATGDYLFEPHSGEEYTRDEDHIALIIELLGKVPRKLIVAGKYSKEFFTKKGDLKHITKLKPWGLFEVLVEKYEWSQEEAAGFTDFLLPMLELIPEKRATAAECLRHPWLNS
Recorded conditions: at 1 µM
Measured parameter: inhibition (%)
All answers are understood in %, so give the number only.

Use these answered entries as a reference point.
| Smiles string | inhibition, % |
| --- | --- |
| COc1ccc(C2=C(N3CCc4ccccc43)C(=O)NC2=O)cc1 | 0.76 |
| CCS(=O)(=O)c1ccc(OC)c(Nc2ncc(-c3ccccc3Cl)o2)c1 | 0.67 |
| COc1cc2ncn(-c3cc(OCCc4ccccc4)c(C(N)=O)s3)c2cc1OC | -4.19 |
| COc1cc2ncn(-c3cc(OCc4ccccc4C(F)(F)F)c(C(C)=O)s3)c2cc1OC | -1.87 |
| CCC(=O)Nc1ccc(C)c(-c2ccc(C(=O)NCC3CC3)cc2)c1 | -2.74 |
| CN1CCN(CCCNc2nc3ccc(Oc4ccc(NC(=O)Nc5cc(C(F)(F)F)ccc5F)cc4)cc3[nH]2)CC1 | -3.44 |

Need inhibition, item N#Cc1ccc(Oc2nccc(-c3c(-c4ccc(F)cc4)ncn3C3CCNCC3)n2)cc1 -3.38

====

Target entity: RAC-alpha serine/threonine-protein kinase (Homo sapiens)
Recorded conditions: at 1 µM
Description: GSK_PKIS: AKT1 mean inhibition at 1 uM [Nanosyn]
Measured parameter: inhibition (%)
All answers are understood in %, so give the number only.

| Smiles string | inhibition, % |
| --- | --- |
| Cc1nnc(-c2ccc(C)c(-c3ccc(C(=O)NCc4ccc(Cl)cc4)cc3)c2)o1 | -2.4 |
| COc1cccc(-n2cnc3c(N/N=C/c4ccncc4)ncnc32)c1 | -3.41 |
| Fc1ccc(-c2nc3n(c2-c2ccncc2)CCS3)cc1 | -2.29 |
| COc1cc2ncn(-c3cc(OCCc4ccccc4)c(C(N)=O)s3)c2cc1OC | 0.01 |
| Fc1ccc(-c2ncn(C3CCNCC3)c2-c2ccnc(Oc3ccc4c(c3)OCO4)n2)cc1 | 1.04 |

With those in mind, consider the next molecule.
Need inhibition, item CN(c1ccc(NC(=O)Nc2c(Cl)cccc2Cl)cc1)c1ccnc(Nc2cccc(CS(C)(=O)=O)c2)n1 1.09

====

Target entity: Mitogen-activated protein kinase 13 (Homo sapiens) (UniProt O15264);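 note: reported value is the mean percent inhibition of p38delta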
Sequence (O15264 whole entry): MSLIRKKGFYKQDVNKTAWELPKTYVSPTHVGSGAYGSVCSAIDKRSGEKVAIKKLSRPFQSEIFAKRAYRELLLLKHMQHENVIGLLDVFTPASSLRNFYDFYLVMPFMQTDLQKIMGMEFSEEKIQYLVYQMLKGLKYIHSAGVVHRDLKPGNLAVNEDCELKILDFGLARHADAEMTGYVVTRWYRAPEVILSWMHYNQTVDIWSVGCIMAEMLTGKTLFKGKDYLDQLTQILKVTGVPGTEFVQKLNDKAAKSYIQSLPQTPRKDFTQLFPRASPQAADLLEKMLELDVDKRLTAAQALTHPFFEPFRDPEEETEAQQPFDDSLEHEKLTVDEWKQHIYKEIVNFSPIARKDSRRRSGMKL
Recorded conditions: at 0.1 µM
Reported inhibition values for a set of molecules
Value and unit, in that order.

Use these answered entries as a reference point.
| Molecule | inhibition |
| --- | --- |
| NC(=O)c1cc(-c2ccncc2)cc(-c2ccccc2)c1N | 2.69% |
| NS(=O)(=O)c1ccc(N/N=C2\C(=O)Nc3ccc(-c4cnco4)cc32)cc1 | 2.15% |
| COc1ccc2ncn(-c3cc(O[C@H](C)c4ccccc4Cl)c(C(N)=O)s3)c2c1 | 5.14% |
| Nc1nccc(-c2c(-c3ccc(F)cc3)ncn2C2CCC(O)CC2)n1 (configuration not stated) | 0.18% |
| CN(C)CCCNc1nccc(-c2c(-c3ccc(F)cc3)nn3cc(C(F)(F)F)ccc23)n1 | 1.74% |
| CN1CCN(CCCNc2nc3ccc(Oc4ccc(NC(=O)Nc5cc(C(F)(F)F)ccc5F)cc4)cc3[nH]2)CC1 | 0.46% |

With those in mind, consider the next molecule.
Need inhibition, item CS(=O)(=O)CCNCc1ccc(-c2ccc3ncnc(Nc4ccc(OCc5ccccc5)c(Br)c4)c3c2)o1 4.88%

====

Reported inhibition values for a set of compounds
Target entity: Serine/threonine-protein kinase Sgk3 (Homo sapiens) (UniProt Q96BR1);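 note: reported percentages are averaged inhibition values against SGK3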
Sequence (Q96BR1 whole entry): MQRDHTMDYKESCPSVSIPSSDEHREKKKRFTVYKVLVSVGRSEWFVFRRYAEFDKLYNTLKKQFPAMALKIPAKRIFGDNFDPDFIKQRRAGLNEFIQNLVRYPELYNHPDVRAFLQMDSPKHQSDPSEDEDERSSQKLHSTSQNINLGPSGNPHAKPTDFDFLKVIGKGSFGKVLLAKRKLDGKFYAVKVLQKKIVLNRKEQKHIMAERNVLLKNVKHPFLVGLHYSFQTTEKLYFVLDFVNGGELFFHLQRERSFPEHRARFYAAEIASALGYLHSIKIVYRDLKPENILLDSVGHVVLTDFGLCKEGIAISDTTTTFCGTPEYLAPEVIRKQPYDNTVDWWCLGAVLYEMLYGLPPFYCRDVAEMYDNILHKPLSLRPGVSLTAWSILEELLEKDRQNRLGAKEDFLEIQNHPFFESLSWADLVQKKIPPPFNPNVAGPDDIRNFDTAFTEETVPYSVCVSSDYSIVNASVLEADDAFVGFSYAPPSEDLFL
Recorded conditions: at 0.1 µM
All answers are understood in %, so give the number only.

Use these answered entries as a reference point.
| Smiles string | Value |
| --- | --- |
| O=C(Nc1ccc(Oc2ccc3[nH]c(NC(=O)c4ccccc4)nc3c2)cc1)Nc1cc(C(F)(F)F)ccc1F | 1.78 |
| NCc1ccc(-n2c(-c3nonc3N)nc3cnccc32)cc1 | 3.68 |
| FC(F)(F)c1cccc(Nc2nccc(-c3cnn4nc(-c5ccccc5)ccc34)n2)c1 | 2.7 |
| COc1cc(C)c(N(C)C(=O)CN(C)C)cc1Nc1nc(Nc2cccc(F)c2C(N)=O)c2cc[nH]c2n1 | 0.02 |
| Fc1ccc(-c2ncn(CCCN3CCOCC3)c2-c2ccncc2)cc1 | -1.19 |

Need inhibition, item CCC(=O)Nc1ccc(C)c(-c2ccc(C(=O)NCC3CC3)cc2)c1 2.14
